For each record, write down the corresponding viability at 48 h, 600 µM.
# assaySummary: Cell viability (cytotoxicity) assay, HEK293
# Assay type: cell-based, human
# testConditions: human, hek293 cells; HEK293, 600 μM
The reply should contain only the number, in %.

viability at 48 h, 600 µM reported for this compound CCCCCCCCOC1C(OC2OC(CNC(=N)N)C(O)CC2NC(=N)N)C(NC(=N)N)CC(NC(=N)N)C1OC1OC(CO)C(O)C(NC(=N)N)C1O (centres unmarked) : 63.8

Lab book: viability at 48 h, 600 µM of `N=C(N)NC[C@H]1O[C@H](O[C@H]2[C@H](OCc3ccc(-c4ccccc4)cc3)[C@@H](O[C@H]3O[C@H](CO)[C@@H](O)[C@H](NC(=N)N)[C@H]3O)[C@H](NC(=N)N)C[C@@H]2NC(=N)N)[C@H](NC(=N)N)C[C@@H]1O` noted as 79.8

----------
# assaySummary: Cell viability (cytotoxicity) assay, HEK293
# Type: cell-based, human
# testConditions: human, hek293 cells; HEK293, 125 μM
recordedMetric: viability at 48 h, 125 µM (%)
Answer in %, number only, no unit symbol.

For reference, reported viability at 48 h, 125 µM for COc1cccc2c1C(=O)c1c(O)c3c(c(O)c1C2=O)C[C@@](O)(C(=O)CO)C[C@@H]3O[C@H]1C[C@H](N)[C@H](O)[C@H](C)O1 [Doxorubicin, reference compound] stands at 0
